- assay-method-text: NCI Yeast Anticancer Drug Screen. Data for the cln2 rad14 strain (AID 165);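 note: 0% = growth equal to vehicle treated cultures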
- run-conditions: S. cerevisiae cln2 rad14 strain, at 50.0 µM, hits give high values
About 79,000 compounds went through this panel and 15% of them were active in at least one assay; those are over-represented in the sample as a whole.
Threshold rule: growth inhibition greater than or equal to 20% is y; below that, n.

{"molecule": "CCCCC1CCC(C(=O)O)=NC1 (stereo unspecified)", "class-name": "n"}
{"molecule": "CCC1OC(=O)C(CC)OC1=O (stereo unspecified)", "class-name": "n"}
{"molecule": "CC(C)N(C(=O)C12C3C4C1(I)C1C2C3(I)C41C(=O)N(C(C)C)C(C)C)C(C)C (stereo unspecified)", "class-name": "n"}
{"molecule": "CC(=O)Nc1ccc(S(=O)(=O)Oc2noc3ccccc23)cc1", "class-name": "n"}
{"molecule": "Cc1cccc(NC(=O)c2cccc(C(=O)Nc3cccc(C)c3C)c2)c1C", "class-name": "n"}
{"molecule": "Cc1cccc(C)c1NC(=O)N1CCN(C)CC1", "class-name": "n"}
{"molecule": "CC(=O)C1(O)CCC2C3CCC4CC(=O)CCC4(C)C3C(=O)CC21C (stereo unspecified)", "class-name": "y"}
{"molecule": "CC(C)/C=C1\\CCC(CN(C)C)C1=O (stereo unspecified)", "class-name": "y"}
{"molecule": "CC[C@@]1(OC(=O)CN2CCNCC2)C(=O)OCc2c1cc1n(c2=O)Cc2cc3ccccc3nc2-1", "class-name": "y"}
{"molecule": "C(=C\\c1nc2ncccn2n1)/c1ccccc1", "class-name": "n"}
{"molecule": "O=C(Nc1nc2ccc([N+](=O)[O-])cc2s1)C(=O)C(C(=O)c1ccccc1F)C1OC(=O)c2ccccc21 (stereo unspecified)", "class-name": "y"}

* * *

- assay-method-text: NCI Yeast Anticancer Drug Screen. Data for the cln2 rad14 strain (AID 165);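 note: 0% = growth equal to vehicle treated cultures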
- run-conditions: S. cerevisiae cln2 rad14 strain, at 50.0 µM, hits give high values
- Experimental: Growth inhibition of yeast strains with defined genetic alterations is measured as a screen for potential anti-cancer activity. Selected strains with alterations in DNA damage repair or cell cycle control were exposed to compounds and growth inhibition was measured relative to vehicle treated controls. The strain used in this assay is cln2 rad14
The panel holds about 79,000 compounds, 15% with a hit somewhere; the sample as a whole holds those more often.
Threshold rule: growth inhibition greater than or equal to 10% is met; below that, not met.

{"compound": "COc1ccc(COC(=O)Nc2cccc(Cl)c2)cc1OC", "class-name": "not met"}
{"compound": "Cc1ccc(S(=O)(=O)CC(=O)CC(=O)C(=O)Nc2ccc(Cl)cc2C)cc1", "class-name": "not met"}
{"compound": "CCCCC(CC)CCC(O)CC(C)C (configuration not stated)", "class-name": "met"}
{"compound": "O=C(O)c1cccc(-n2cnc3c(=O)[nH]cnc32)c1", "class-name": "not met"}
{"compound": "COC1OC(C(C)O)C(O)C(O)C1O (configuration not stated)", "class-name": "met"}
{"compound": "Nc1nc(SCCc2ccccc2)c2[nH]cnc2n1", "class-name": "not met"}
{"compound": "CCCCC1SC2=NCCN2C1(O)c1ccc(Cl)cc1 (configuration not stated)", "class-name": "met"}

* * *

- assay-method-text: NCI Yeast Anticancer Drug Screen. Data for the mec2-1 strain (AID 157)
- run-conditions: S. cerevisiae mec2-1 strain, at 50.0 µM, hits give high values
The panel holds about 79,000 compounds, 15% with a hit somewhere; the sample as a whole holds those more often.

{"compound": "NC(N)=NC(=O)c1ccc(N)cc1", "growth inhibition (%)": -2.25}
{"compound": "COc1cc2c(cc1OC)C1=Cc3cc(OC)c(OC)cc3C(C)N1C=C2 (configuration not stated)", "growth inhibition (%)": -6.3}
{"compound": "OCC1OC(n2cnc3[nH]cnc(=S)c32)C(O)C1O (configuration not stated)", "growth inhibition (%)": 14.2}
{"compound": "COc1cc(Cl)ccc1NC(=O)COc1ccc(Cl)cc1", "growth inhibition (%)": 0.5}
{"compound": "Cc1ccc(S(=O)(=O)NCCC(Cl)(Cl)Cl)cc1", "growth inhibition (%)": 6.8}
{"compound": "C/C=C/C=C/C(=O)OCC", "growth inhibition (%)": -2.25}
{"compound": "CCCN=C(N)NC#N", "growth inhibition (%)": 0.8}
{"compound": "O=C(n1[nH]c(=O)n(-c2ccc([N+](=O)[O-])cc2)c1=O)C(Cl)(Cl)Cl", "growth inhibition (%)": -15.3}
{"compound": "Cc1ccc([N+](=O)[O-])cc1NC(=O)Nc1cccc(Cl)c1Cl", "growth inhibition (%)": 2.95}
{"compound": "c1ccc2c(c1)CCCN2c1nc(N2CCCC2)nc(N2CCOCC2)n1", "growth inhibition (%)": -21.8}
{"compound": "N#CC(C#N)=C1CCNCC1", "growth inhibition (%)": -5.5}
{"compound": "CCN(CC)CCCC(C)=O", "growth inhibition (%)": 21.6}
{"compound": "Brc1ccc(-c2ccc(-c3ccc(Br)cc3)s2)cc1", "growth inhibition (%)": 13.8}
{"compound": "Cc1ccc(NC(=O)CN2CCCCC2)cc1", "growth inhibition (%)": -7.65}
{"compound": "Cc1ccc(C(=O)Nc2ccc3c(c2)Cc2ccccc2-3)cc1", "growth inhibition (%)": -23.6}
{"compound": "O=C(NN1C(=O)CSC1c1ccc(F)cc1)c1ccncc1 (configuration not stated)", "growth inhibition (%)": 1.1}
{"compound": "CS(=O)(=O)OCCCCOS(C)(=O)=O", "growth inhibition (%)": -23.9}
{"compound": "Cc1nc2ccccc2nc1C", "growth inhibition (%)": -1.8}
{"compound": "Nc1ccc(S(=O)(=O)NCCS(=O)(=O)O)cc1", "growth inhibition (%)": 4.25}
{"compound": "O=C(NCc1ccco1)Nc1ccccc1Cl", "growth inhibition (%)": -0.2}
{"compound": "Nc1nc2c(=O)[nH]c(=O)[nH]c2n1C1OC(CO)C(O)C1O (configuration not stated)", "growth inhibition (%)": -3.9}
{"compound": "O=C1c2ccccc2C(=O)N1C/C=C/CN1C(=O)c2ccccc2C1=O", "growth inhibition (%)": -5.7}
{"compound": "COC(=O)CCC(=O)CC(=O)C1=NS(=O)(=O)c2nc(S(N)(=O)=O)c(Cl)cc2N1", "growth inhibition (%)": 6.7}
{"compound": "Cn1c(=O)c2c(nc(CCNC(=O)c3ccccc3)n2C)n(C)c1=O", "growth inhibition (%)": -7.75}
{"compound": "CC(O)COc1ccccc1Cl (configuration not stated)", "growth inhibition (%)": -2}
{"compound": "CSc1nn(C)c2cc(C)c3ccccc3[n+]12", "growth inhibition (%)": -7.8}
{"compound": "CCOC(=O)c1ccc(NCc2ccc3nc(OC)c(OC)nc3c2)cc1", "growth inhibition (%)": -20.5}
{"compound": "C#CCC(O)c1ccc(OC)c(OCc2ccccc2)c1 (configuration not stated)", "growth inhibition (%)": -17.9}
{"compound": "CC(=O)N(CCc1ccccc1)C(C)(C#N)c1ccccc1 (configuration not stated)", "growth inhibition (%)": 4}
{"compound": "CCCCCc1c(C)nc(N)[nH]c1=O", "growth inhibition (%)": 0.7}
{"compound": "Cc1cc2c(c(N)c1C)C(=O)c1ccccc1C2=O", "growth inhibition (%)": 11.4}
{"compound": "CC1=CC(=O)[C@@H]2C[C@H]1C2(C)C", "growth inhibition (%)": 12.8}
{"compound": "Cn1c2ccccc2n2c(=O)c3c(c(C#N)c12)CCCC3", "growth inhibition (%)": -35.2}
{"compound": "Cc1ccc(Cc2cc(=O)[nH]c(=S)[nH]2)cc1", "growth inhibition (%)": 4.05}
{"compound": "CSc1cccc(N=C(C#N)C2=C(O)c3ccccc3C2=O)c1", "growth inhibition (%)": 1.85}
{"compound": "c1ccc(-c2nnc(-c3ccccc3)c3nonc23)cc1", "growth inhibition (%)": 14.6}
{"compound": "CSC1=N[C@H](c2ccccc2)CS1", "growth inhibition (%)": -9.85}
{"compound": "OCC1CC(c2ccccc2)=NO1 (configuration not stated)", "growth inhibition (%)": -11.1}
{"compound": "COC1OC2COC(c3ccccc3)OC2C(OC(C)=O)C1OS(=O)(=O)c1ccc(C)cc1 (configuration not stated)", "growth inhibition (%)": 14.1}
{"compound": "OCC1OC(O)C(N=Cc2ccc3c(c2)OCO3)C(O)C1O (configuration not stated)", "growth inhibition (%)": -14.6}
{"compound": "CCCCCCCCCCCCCCNC(=O)CCl", "growth inhibition (%)": -17.5}
{"compound": "CC(C)(CC(O)C#N)/[N+]([O-])=[N+](\\[O-])C(C)(C)CC(O)C#N (configuration not stated)", "growth inhibition (%)": 5.15}
{"compound": "CCCCN(CCCC)C(=O)C(=O)C(C#N)c1ccc(C)cc1 (configuration not stated)", "growth inhibition (%)": -0.8}
{"compound": "O=C1NC(=O)C(c2ccc(Cl)cc2)(c2cccc(Cl)c2)N1 (configuration not stated)", "growth inhibition (%)": -16.5}
{"compound": "CC(=O)Nc1cc(C)c(C)cc1[N+](=O)[O-]", "growth inhibition (%)": -16.6}
{"compound": "NNCCSC1CCCCC1", "growth inhibition (%)": 22.1}
{"compound": "O=c1oc2ncccc2n1Cc1ccc([N+](=O)[O-])cc1", "growth inhibition (%)": -22}
{"compound": "CNC(=O)c1ccccc1O", "growth inhibition (%)": 8.55}
{"compound": "Cc1ccc(/C=N/NS(=O)(=O)c2ccc(/C=C3\\NC(=O)NC3=O)cc2)cc1", "growth inhibition (%)": -6.1}
{"compound": "Cc1c(CCNC(=O)C(F)(F)F)ccc2c1[nH]c1ccccc12", "growth inhibition (%)": 3.05}
{"compound": "COC(=O)CCC(=O)c1ccc(OC)cc1", "growth inhibition (%)": -6.5}
{"compound": "C=CCC1=C2CCCCC2CCC1=O (configuration not stated)", "growth inhibition (%)": -27.8}
